- system: RORγ LBD (Homo sapiens)
- Sequence (P51449 269-508 limits assumed): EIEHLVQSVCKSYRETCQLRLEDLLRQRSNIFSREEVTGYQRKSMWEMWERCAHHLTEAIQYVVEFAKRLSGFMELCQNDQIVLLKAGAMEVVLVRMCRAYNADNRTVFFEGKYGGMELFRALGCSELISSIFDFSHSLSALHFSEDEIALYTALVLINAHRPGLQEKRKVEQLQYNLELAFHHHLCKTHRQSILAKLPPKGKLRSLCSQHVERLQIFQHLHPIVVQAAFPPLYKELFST
- methodNotes: TR-FRET NCoR1-D2 co-repressor recruitment to RORγ LBD
- Format: biochemical
- Set-up: purified GST-tagged (i) RORγ LBD or (ii) RORα LBD; purchased Life Technologies
- measurementSetup: TR-FRET assessed 20 hr post-assay initiation; read-out: RORγ EC50 NCoR1-D2 co-repressor recruitment, 20 hr
pEC50: −log10 of the molar value.
endpointLabel: pEC50

Input: Param item = OC(c1ccc(CN2CCCc3cc(-c4cn[nH]c4)ccc32)cc1)(C(F)(F)F)C(F)(F)F [Example 2] ; retrieve measured pEC50.
Output: > 4.52

Input: Please do the same for Cc1n[nH]c(-c2ccc3c(c2)CCC(=O)N3Cc2ccc(C(O)(C(F)(F)F)C(F)(F)F)cc2)n1 [Example 6] as well.
Output: < 4.52

Input: Try this molecule too: Cc1cc(-c2ccc3c(c2)CCCN3Cc2ccc(C(O)(C(F)(F)F)C(F)(F)F)cc2)[nH]n1 [Example 1]
Output: > 4.52

Input: Please do the same for Cc1nnc(-c2ccc3c(c2)CCN3Cc2ccc(C(O)(C(F)(F)F)C(F)(F)F)cc2)o1 [Example 9] as well.
Output: < 4.52

* * *

Give pEC50 for every item shown.
- system: RORα LBD (Homo sapiens)
- Construct: purified GST-tagged (i) RORγ LBD or (ii) RORα LBD; purchased Life Technologies
- Sequence (P35398 272-510 limits assumed): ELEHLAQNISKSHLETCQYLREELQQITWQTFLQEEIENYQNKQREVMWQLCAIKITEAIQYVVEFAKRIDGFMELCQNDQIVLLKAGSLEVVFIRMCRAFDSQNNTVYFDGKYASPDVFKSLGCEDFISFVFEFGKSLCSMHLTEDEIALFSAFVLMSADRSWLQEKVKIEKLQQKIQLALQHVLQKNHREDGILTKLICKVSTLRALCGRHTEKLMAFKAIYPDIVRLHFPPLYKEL
- methodNotes: TR-FRET D22 co-activator displacement from RORα LBD
- Assay type: biochemical
- measurementSetup: TR-FRET assessed 2 hr post-assay initiation; read-out: RORα EC50 D22 co-activator displacement, 2 hr
pEC50: −log10 of the molar value.

Input: # pEC50 lookup, item OC(c1ccc(CN2CCc3cc(-c4cn[nH]c4)ccc32)cc1)(C(F)(F)F)C(F)(F)F
Output: < 4.52

Input: For Cc1nnc(-c2ccc3c(c2)CCN3Cc2ccc(C(O)(C(F)(F)F)C(F)(F)F)cc2)o1 then?
Output: < 4.52

Input: Item: Cc1n[nH]c(-c2ccc3c(c2)CCCN3Cc2ccc(C(O)(C(F)(F)F)C(F)(F)F)cc2)n1
Output: < 4.52

Input: Continue with Cc1n[nH]c(-c2ccc3c(c2)CCC(=O)N3Cc2ccc(C(O)(C(F)(F)F)C(F)(F)F)cc2)n1
Output: > 4.52

Input: Now try Cc1cc(-c2ccc3c(c2)CCC(=O)N3Cc2ccc(C(O)(C(F)(F)F)C(F)(F)F)cc2)[nH]n1 .
Output: < 4.52

Input: # repeat for Cc1cc(-c2ccc3c(c2)CCN3Cc2ccc(C(O)(C(F)(F)F)C(F)(F)F)cc2)[nH]n1
Output: > 4.52

Input: Another molecule to check: O=C1CCc2cc(-c3cn[nH]c3)ccc2N1Cc1ccc(C(O)(C(F)(F)F)C(F)(F)F)cc1
Output: < 4.52

Input: # repeat for OC(c1ccc(CN2CCCc3cc(-c4cn[nH]c4)ccc32)cc1)(C(F)(F)F)C(F)(F)F
Output: > 4.52

Input: Another: Cc1cc(-c2ccc3c(c2)CCCN3Cc2ccc(C(O)(C(F)(F)F)C(F)(F)F)cc2)[nH]n1
Output: < 4.52
